- Tested on: corn (Zea mays)
- assay_protocol: Test A pre-/postemergence: corn
- Type: in vivo
- test_context: Preemergence, 125 g ai/ha; 0 to 100 scale where 0 is no effect and 100 is complete control

molecule: Cc1nn(-c2ccc(F)cc2)nc1Oc1cc(C(F)(F)F)ccn1 [Compound 128]
Plant response rating, Corn: 0
--
molecule: CCc1nn(-c2cccc(C(F)(F)F)c2)nc1Cc1cccc(C(F)(F)F)c1 [Compound 143]
Plant response rating, Corn: 0
--
molecule: Fc1ccc(-n2nc(F)c(Cc3ccnc(C(F)(F)F)c3)n2)cc1 [Compound 159]
Plant response rating, Corn: 0
--
molecule: CC(C)c1nn(-c2ccc(F)cc2)nc1Cc1cccc(C(F)(F)F)c1 [Compound 150]
Plant response rating, Corn: 0
--
molecule: Cc1nn(-c2ccc(C(F)(F)F)cn2)nc1C(=NO)c1cccc(C(F)(F)F)c1 [Compound 201]
Plant response rating, Corn: 0
--
molecule: CCOc1nn(-c2ccc(Br)cc2)nc1Cc1ccnc(C(F)(F)F)c1 [Compound 189]
Plant response rating, Corn: 10
--
molecule: Cc1nn(-c2ccc(F)c(F)c2)nc1Oc1ccnc(C(F)(F)F)c1 [Compound 145]
Plant response rating, Corn: 10
--
molecule: CCc1nn(-c2ccc(C(F)(F)F)cc2)nc1Cn1cc(C(F)(F)F)nc1Cl [Compound 122]
Plant response rating, Corn: 10
--
molecule: Cc1nn(-c2ccnc(C(F)(F)F)c2)nc1Cc1ccnc(C(F)(F)F)c1 [Compound 137]
Plant response rating, Corn: 0
--
molecule: CCc1nn(-c2ccc(F)cc2F)nc1Oc1ccnc(C(F)(F)F)c1 [Compound 178]
Plant response rating, Corn: 0
--
molecule: Cc1nn(-c2ccc(F)c(C(F)(F)F)c2)nc1Oc1ccnc(C(F)(F)F)c1 [Compound 147]
Plant response rating, Corn: 10
--
molecule: COCc1nn(-c2ccc(F)cc2)nc1Oc1ccnc(C(F)(F)F)c1 [Compound 161]
Plant response rating, Corn: 10

---

// reported Plant response rating, Barnyardgrass per item
- Test system: barnyardgrass (Echinochloa crus-galli)
- assay_protocol: Test A pre-/postemergence: barnyardgrass
- Format: in vivo
- test_context: Preemergence, 500 g ai/ha; 0 to 100 scale, 0 is no effect, 100 is complete control
measured_metric: Plant response rating, Barnyardgrass

substance_smiles: Cc1nn(-c2cnc(Cl)cn2)nc1C(=O)c1cccc(C(F)(F)F)c1
measured_metric: Plant response rating, Barnyardgrass
meas_value: 0

substance_smiles: Cc1nn(-c2ccc(Br)cc2)nc1C(=O)c1cccc(C(F)(F)F)c1
measured_metric: Plant response rating, Barnyardgrass
meas_value: 0

substance_smiles: Cc1nn(-c2ccc(C(F)(F)F)cn2)nc1Cn1ccc(C(F)(F)F)n1
measured_metric: Plant response rating, Barnyardgrass
meas_value: 100

substance_smiles: Cc1nn(-c2ccccc2Cl)nc1C(=O)c1cccc(C(F)(F)F)c1
measured_metric: Plant response rating, Barnyardgrass
meas_value: 0

substance_smiles: Cc1nn(-c2ccc(C(F)(F)F)cc2)nc1Oc1ccccc1Cl
measured_metric: Plant response rating, Barnyardgrass
meas_value: 0

substance_smiles: Cc1nn(-c2cncc(C(F)(F)F)c2)nc1C(=O)c1cccc(C(F)(F)F)c1
measured_metric: Plant response rating, Barnyardgrass
meas_value: 0

substance_smiles: Cc1nn(-c2ccc(C(F)(F)F)cc2)nc1C(=O)c1cccc(C(F)(F)F)c1
measured_metric: Plant response rating, Barnyardgrass
meas_value: 10

substance_smiles: Cc1nn(-c2cccc(C(F)(F)F)c2)nc1Oc1ccnc(C(F)(F)F)c1
measured_metric: Plant response rating, Barnyardgrass
meas_value: 80

substance_smiles: Cc1nn(-c2ccc(C(F)(F)F)cc2)nc1Oc1cnn(CC(F)(F)F)c1
measured_metric: Plant response rating, Barnyardgrass
meas_value: 0

substance_smiles: Cc1nn(-c2ccc(F)cc2)nc1Oc1cccc(OC(F)(F)F)c1
measured_metric: Plant response rating, Barnyardgrass
meas_value: 20
